- test details: Half life in rabbit serum at 100 uM by RP-HPLC method
- Assay type: ADME, cell-free, Oryctolagus cuniculus
Starred links: 1 amine or outer side, 2 acyl side, 3 side chain; linkers in the order of their positions; H or OH if unused. Positions of bridges follow the written chain, without caps; N, C: chain ends. Non-standard residues stand in square brackets, D forms with d. Residues, ends and D or L forms follow the SMILES beside them. X1 = O=C([C@H](CCC/C=C/[*:3])N[*:1])[*:2]
quantity name: half-life at 100 µM (h)
Report only the number, with the unit h understood.

Recorded half-life at 100 µM of CC[C@H](C)[C@@H]1NC(=O)[C@@H](NC(=O)[C@H](CCCNC(=N)N)NC(=O)[C@H](CCCCN)NC(=O)[C@@H](N)Cc2c[nH]c3ccccc23)CS/C=C/CCC[C@@H](C(=O)N[C@@H](CC(C)C)C(=O)N[C@@H](CC(C)C)C(=O)N[C@@H](CCC(N)=O)C(=O)N[C@@H](CCC(=O)O)C(N)=O)NC(=O)[C@H](CCCNC(=N)N)NC(=O)[C@H](CC(C)C)NC1=O (H-WKRCILR[X1]LLQE-NH2; thioether 4-8) , please. 18.2

###

- test system: Estrogen receptor (Homo sapiens, UniProt P03372)
- Sequence (P03372 whole entry): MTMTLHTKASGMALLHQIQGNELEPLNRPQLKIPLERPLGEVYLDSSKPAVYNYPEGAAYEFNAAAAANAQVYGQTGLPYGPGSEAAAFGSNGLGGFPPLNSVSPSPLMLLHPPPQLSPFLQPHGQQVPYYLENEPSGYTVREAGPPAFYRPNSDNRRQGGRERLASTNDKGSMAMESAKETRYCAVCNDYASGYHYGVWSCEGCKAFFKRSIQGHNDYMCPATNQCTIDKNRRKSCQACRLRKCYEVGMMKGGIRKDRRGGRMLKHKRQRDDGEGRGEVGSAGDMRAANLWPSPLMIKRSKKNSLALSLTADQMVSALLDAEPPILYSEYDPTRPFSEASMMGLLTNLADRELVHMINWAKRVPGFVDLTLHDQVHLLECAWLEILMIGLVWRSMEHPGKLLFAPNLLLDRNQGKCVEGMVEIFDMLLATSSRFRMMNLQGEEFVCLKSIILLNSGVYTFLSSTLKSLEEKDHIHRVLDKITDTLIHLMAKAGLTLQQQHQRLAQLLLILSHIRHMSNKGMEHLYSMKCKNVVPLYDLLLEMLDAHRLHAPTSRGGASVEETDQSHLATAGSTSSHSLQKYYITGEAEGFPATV
- test details: Antagonist activity at full length recombinant human ERalpha expressed in baculovirus expression system assessed as inhibition of estradiol-induced Euphorium-labelled LTERHKILHRLLQEGSPSD peptide recruitment after 1.5 hrs by time-resolved fluorescence assay
Starred links: 1 amine or outer side, 2 acyl side, 3 side chain; linkers in the order of their positions; H or OH if unused. Positions of bridges follow the written chain, without caps; N, C: chain ends. Non-standard residues stand in square brackets, D forms with d. Residues, ends and D or L forms follow the SMILES beside them. X2 = O=C([C@@H](CC[*:3])N[*:1])[*:2]
quantity name: pKi
Value format note: pKi is -log10 of concentration (mol/L); just state the number.

Consider the worked cases shown below.
Please look up its pKi: CC[C@H](C)[C@@H]1NC(=O)[C@H](NC(=O)[C@@H](N)CCCNC(=N)N)CCSC[C@@H](C(=O)N[C@@H](CCCNC(=N)N)C(=O)N[C@@H](CC(C)C)C(=O)N[C@@H](CC(C)C)C(=O)N[C@@H](CCC(N)=O)C(N)=O)NC(=O)[C@H](CC(C)C)NC1=O (H-R[X2]ILCRLLQ-NH2; thioether 2-5) 8.16

Need pKi, item CC[C@H](C)[C@@H]1NC(=O)[C@H](NC(=O)[C@@H](N)CCCCN)CSSC[C@H](C(=O)N[C@@H](CCCNC(=N)N)C(=O)N[C@@H](CC(C)C)C(=O)N[C@@H](CC(C)C)C(=O)N[C@@H](CCC(N)=O)C(N)=O)NC(=O)[C@H](CC(C)C)NC1=O (H-K[dC]IL[dC]RLLQ-NH2; disulfide 2-5) 7.60

Fill in: pKi of CC[C@H](C)[C@@H]1NC(=O)[C@H](NC(=O)[C@@H](N)CCCNC(=N)N)CSSC[C@H](C(=O)N[C@@H](CCCNC(=N)N)C(=O)N[C@@H](CC(C)C)C(=O)N[C@@H](CC(C)C)C(=O)N[C@@H](CCC(N)=O)C(N)=O)NC(=O)[C@H](CC(C)C)NC1=O is ___ 7.96

---
Fill in: pKi of CC[C@H](C)[C@@H]1NC(=O)[C@H](NC(=O)[C@@H](N)CCCNC(=N)N)CSSC[C@H](C(=O)N[C@@H](CCCNC(=N)N)C(=O)N[C@@H](CC(C)(C)C)C(=O)N[C@@H](CC(C)C)C(=O)N[C@@H](CCC(N)=O)C(N)=O)NC(=O)[C@H](CC(C)C)NC1=O is ___ 10.15

###

- Tested on: Estrogen receptor beta (Homo sapiens), Q92731 [C334S,C369S,C481S]
- Sequence (Q92731 whole entry C334S/C369S/C481S, the tested form may be a part): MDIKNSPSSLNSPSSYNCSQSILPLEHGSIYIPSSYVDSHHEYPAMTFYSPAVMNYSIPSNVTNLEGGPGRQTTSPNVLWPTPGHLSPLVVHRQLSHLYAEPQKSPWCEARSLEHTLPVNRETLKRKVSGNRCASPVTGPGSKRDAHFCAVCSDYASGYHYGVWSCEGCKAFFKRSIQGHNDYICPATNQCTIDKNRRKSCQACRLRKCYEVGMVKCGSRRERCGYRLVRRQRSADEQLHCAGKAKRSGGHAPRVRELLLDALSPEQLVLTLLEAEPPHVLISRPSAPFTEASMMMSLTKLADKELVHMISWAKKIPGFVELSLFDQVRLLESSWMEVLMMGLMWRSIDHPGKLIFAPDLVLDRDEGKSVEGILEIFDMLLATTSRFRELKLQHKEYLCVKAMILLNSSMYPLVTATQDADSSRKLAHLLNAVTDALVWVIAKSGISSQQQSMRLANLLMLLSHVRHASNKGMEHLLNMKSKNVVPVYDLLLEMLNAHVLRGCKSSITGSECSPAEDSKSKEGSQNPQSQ
- test details: Binding affinity to recombinant human ERbeta LBD (259 to 498 residues) C334S/C369S/C481S triple mutant expressed in Escherichia coli BL21(DE3) by surface plasmon resonance method
Positions of bridges follow the written chain, without caps; N, C: chain ends. Non-standard residues stand in square brackets, D forms with d. Residues, ends and D or L forms follow the SMILES beside them. S5 = C=CCCC[C@](C)(N)C(=O)O
quantity name: Kdiss
Hi, when you answer, please include the unit after the number. Thanks!

Form field: reported Kdiss of CC[C@H](C)[C@@H]1NC(=O)[C@@](C)(NC(=O)[C@H](Cc2cnc[nH]2)NC(C)=O)CCC/C=C\CCC[C@@](C)(C(=O)N[C@@H](CC(C)C)C(=O)N[C@@H](CC(C)C)C(=O)N[C@@H](CCC(N)=O)C(=O)N[C@@H](CC(=O)O)C(=O)N[C@@H](CO)C(N)=O)NC(=O)[C@H](Cc2cnc[nH]2)NC(=O)[C@H](CC(C)C)NC1=O (Ac-H[S5]ILH[S5]LLQDS-NH2; staple (Z) 2-6) 0.509 s⁻¹

Others:
Quick one: Kdiss of CC(=O)N[C@@H](Cc1cnc[nH]1)C(=O)N[C@@H](CCCCN)C(=O)N[C@@]1(C)CCC/C=C\CCC[C@@](C)(C(=O)N[C@@H](CC(C)C)C(=O)N[C@@H](CCC(N)=O)C(=O)N[C@@H](CC(=O)O)C(=O)N[C@@H](CO)C(N)=O)NC(=O)[C@H](CCC(N)=O)NC(=O)[C@H](Cc2cnc[nH]2)NC(=O)[C@H](CC(C)C)NC1=O (Ac-HK[S5]LHQ[S5]LQDS-NH2; staple (Z) 3-7) ? 0.339 s⁻¹

Reported Kdiss, molecule CC[C@H](C)[C@H](NC(=O)[C@H](CCCCN)NC(=O)[C@H](Cc1cnc[nH]1)NC(=O)[C@H](CCCCN)NC(=O)[C@H](CCC(=O)O)NC(C)=O)C(=O)N[C@@H](CC(C)C)C(=O)N[C@@]1(C)CCC/C=C\CCC[C@@](C)(C(=O)N[C@@H](CC(=O)O)C(=O)N[C@@H](CO)C(N)=O)NC(=O)[C@H](CC(C)C)NC(=O)[C@H](CC(C)C)NC(=O)[C@H](CCCNC(=N)N)NC1=O (Ac-EKHKIL[S5]RLL[S5]DS-NH2; staple (Z) 7-11) : ____ 0.155 s⁻¹

I would be grateful if you could share the reported Kdiss for CC[C@H](C)[C@H](NC(=O)[C@H](CCCCN)NC(=O)[C@H](Cc1cnc[nH]1)NC(C)=O)C(=O)N[C@@H](CC(C)C)C(=O)N[C@@H](Cc1cnc[nH]1)C(=O)N[C@@H](CCCNC(=N)N)C(=O)N[C@@H](CC(C)C)C(=O)N[C@@H](CC(C)C)C(=O)N[C@@H](CCC(N)=O)C(=O)N[C@@H](CC(=O)O)C(=O)N[C@@H](CO)C(N)=O (Ac-HKILHRLLQDS-NH2) . 0.376 s⁻¹
